Biological target: BACE1 enzyme (Homo sapiens)
Construct: derived from HEK293 cells (Simmons, N. L. (1990)); endogenous in cells; washed 48,000 x g pellet of cell homogenate
Sequence (P56817 46-501): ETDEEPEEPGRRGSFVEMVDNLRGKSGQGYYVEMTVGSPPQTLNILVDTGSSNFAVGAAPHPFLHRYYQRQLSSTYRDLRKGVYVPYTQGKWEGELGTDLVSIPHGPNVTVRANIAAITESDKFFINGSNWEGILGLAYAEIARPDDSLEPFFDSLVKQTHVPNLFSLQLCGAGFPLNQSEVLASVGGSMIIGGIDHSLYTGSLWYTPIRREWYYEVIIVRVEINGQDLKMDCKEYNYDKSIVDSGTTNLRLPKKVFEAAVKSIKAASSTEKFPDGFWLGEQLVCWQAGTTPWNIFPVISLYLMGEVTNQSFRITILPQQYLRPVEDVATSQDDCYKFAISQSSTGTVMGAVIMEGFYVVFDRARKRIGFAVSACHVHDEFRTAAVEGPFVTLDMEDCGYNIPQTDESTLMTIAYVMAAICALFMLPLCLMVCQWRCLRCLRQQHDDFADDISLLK
Test: Radioligand displacement assay with a radiolabeled BACE inhibitor on HEK293-9B.A1 cell homogenate
Details: displacement of 1 nM radioligand, HEK293-9B.A1 homogenate, pH 5.0, 1.5 hr at 25° C.; read-out: Activity Rating (activity based on IC50 values)
Quantity kind: IC50

Field: example entries. Status: answers known.
smiles_structure=CON=C(CC(=O)/N=C(\N)NCc1cc(Cl)c(N)c(Cl)c1)c1c[nH]c2ccccc12 recorded_measurement="100 to 1000 nM"
smiles_structure=CON=C(CC(=O)/N=C(\N)NCc1cc(Cl)c(NC(C)=O)c(Cl)c1)c1c[nH]c2ccccc12 recorded_measurement="< 100 nM"
smiles_structure=COc1ccc(C(CC(=O)/N=C(\N)NCc2cc(Cl)c(N)c(Cl)c2)=NOCC(C)C)cc1 recorded_measurement="> 1000 nM"
smiles_structure=COc1ccc(C(CC(=O)N=C(N)NCc2cc(Cl)c(NC(C)=O)c(Cl)c2)=NOCC(C)C)cc1 recorded_measurement="100 to 1000 nM"
smiles_structure=CON=C(CC(=O)/N=C(\N)NCc1cc(C)c(C(=O)CN(C)C)c(Cl)c1)c1c[nH]c2ccccc12 recorded_measurement="100 to 1000 nM"

INPUT: Recorded IC50 for CON=C(CC(=O)/N=C(\N)Cc1cc(Cl)c(NC(C)=O)c(Cl)c1)c1ccc(OC)cc1 , please?
OUTPUT: < 100 nM
